molecular target: Aβ(1–42) (Homo sapiens, UniProt P05067); construct: Synthesized monomeric Aβ(1–42), […]; […]; IA; made in house; host or cells: chemical synthesis (Fmoc solid phase peptide synthesis); assay: ThT fluorescence Aβ(1–42) aggregation inhibition assay; type: biochemical; conditions: compounds at 0.5, 5, 50, 500 μM co-incubated with monomeric Aβ(1–42) 25 μM, 37°C, 3 days; concentration of the printed value not stated
Sequence (P05067 672-713 limits assumed): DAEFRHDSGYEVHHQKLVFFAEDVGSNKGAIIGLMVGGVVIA
Parameter Inhibition of Aβ(1–42) fibrillation (ThT fluorescence): see the listing below.
MEASURED PROPERTY: Inhibition of Aβ(1–42) fibrillation (ThT fluorescence) (%)

{"columns": ["COMPOUND", "VALUE OBSERVED"],
 "data": [
  ["CC(C)(C)c1ccc(OCC(O)CN2CCCC2)cc1.Cl (stereo not shown)", 75.96],
  ["CCC(C)(C)c1ccc(OCC(O)CN2CCCC2)c(C(C)(C)CC)c1.Cl (stereo not shown)", 98.15],
  ["CCC(C)(C)c1ccc(OCC(O)CN2CCOCC2)c(C(C)(C)CC)c1.Cl (stereo not shown)", 82.55],
  ["CC(C)(C)c1ccc(OCC(O)CN2CCCCC2)cc1.Cl (stereo not shown)", 70.69]
]}
